The values you see were collected from patent US20030078251A1.

Assay readout: melting point

>>> print(df.to_string())
                                smiles_code           result
0  COc1cccc([C@H]2O[C@H](CC(=O)NCc3ccc(C(=O)O)cc3)C(=O)N(CC(C)(C)CO)c3ccc(Cl)cc32)c1OC    143 to 144 °C
1  COc1cccc([C@H]2O[C@H](CC(=O)NCCCC(=O)O)C(=O)N(CC(C)(C)C)c3ccc(Cl)cc32)c1OC    128 to 130 °C
2  COc1cccc([C@H]2O[C@H](CC(=O)Nc3ccc(C(=O)O)o3)C(=O)N(CC(C)(C)CO)c3ccc(Cl)cc32)c1OC    155 to 158 °C
3  COc1cccc([C@H]2O[C@H](CC(=O)Nc3cc(C)c4oc(C(=O)O)cc4c3)C(=O)N(CC(C)(C)CO)c3ccc(Cl)cc32)c1OC  180.7 to 182 °C
4  CCCS(=O)(=O)NC(=O)C[C@H]1O[C@H](c2cccc(OC)c2OC)c2cc(Cl)ccc2N(CC(C)(C)CO)C1=O    135 to 137 °C
5  COc1cccc([C@H]2O[C@H](CC(=O)Nc3cc(CCC(=O)O)ccc3OC(C)C)C(=O)N(CC(C)(C)COC(C)=O)c3ccc(Cl)cc32)c1OC    101 to 103 °C
